Taken from PubChem BioAssay (Tox21).

- measurement.notes: qHTS assay to identify small molecule agonists of the hypoxia (HIF-1) signaling pathway - cell viability counter screen (AID 1224844); note: nearly all actives have a fitted effect of over 50% in size; note: potency is the fitted concentration of half-maximal effect
- protocol.conditions: HRE-bla ME-180 viability, CellTiter-Glo luminescence, 17 h; series mostly up to 76.8 µM
Results filed as inconclusive are left out. Activity calls are given as the source filed them. Calls come from the whole dose curve.

[
  {
    "molecule": "CCCNCCC",
    "Potency": "inactive"
  },
  {
    "molecule": "CCC(CC)(CC(=O)Nc1cccc(/C=C/c2nc(C3CCC3)cs2)c1)C(=O)O",
    "Potency": "inactive"
  },
  {
    "molecule": "CCCCN(CCCC)CC(O)c1cc(Cl)cc2c1-c1ccc(Cl)cc1/C2=C/c1ccc(Cl)cc1 (stereo unspecified)",
    "Potency": "inactive"
  },
  {
    "molecule": "C=CC(=O)Nc1cc2c(Nc3ccc(F)c(Cl)c3)ncnc2cc1OCCCN1CCOCC1",
    "Potency": "23.9 µM (active)"
  },
  {
    "molecule": "O=C(Nc1ccc2c(O)c(N=Nc3ccc(N=Nc4ccc(S(=O)(=O)O)cc4)cc3)c(S(=O)(=O)O)cc2c1)c1ccccc1",
    "Potency": "inactive"
  },
  {
    "molecule": "Nc1ccc(C(=O)O)c(O)c1",
    "Potency": "inactive"
  }
]

====

- measurement.notes: qHTS assay for small molecule activators of the heat shock response signaling pathway - cell viability counter screen (AID 743209); note: nearly all actives have a fitted effect of over 50% in size
- protocol.conditions: HSE-bla HeLa viability, CellTiter-Glo luminescence, 5 h; series mostly up to 62.6 µM
Inconclusive results are not listed. Activity calls are given as the source filed them. Calls come from the whole dose curve; as a rule, active = well fitted cell-killing curve with a large enough effect in the repeat runs; inconclusive = weak or mixed curves, or effect the other way; inactive = no such curve, though single readings can be large or run the other way.
Labels: active, inactive

[
  {
    "compound": "Oc1c(I)cc(Cl)c2cccnc12",
    "label.value": "inactive"
  },
  {
    "compound": "C=CC(=O)Nc1cc2c(Nc3ccc(F)c(Cl)c3)ncnc2cc1OCCCN1CCOCC1",
    "label.value": "inactive"
  },
  {
    "compound": "Cc1cccc(C)c1NC(=O)c1ccc(N)cc1",
    "label.value": "inactive"
  },
  {
    "compound": "Clc1sc(Cl)c(Cl)c1Cl",
    "label.value": "inactive"
  },
  {
    "compound": "CN(C)C(=O)COC(=O)Cc1ccc(OC(=O)c2ccc(N=C(N)N)cc2)cc1",
    "label.value": "inactive"
  },
  {
    "compound": "OC1CCC(C2CCCCC2)CC1 (stereo unspecified)",
    "label.value": "inactive"
  },
  {
    "compound": "S=C([S-])NCCNC(=S)[S-].S=C([S-])NCCNC(=S)[S-].[Mn+2].[Zn+2]",
    "label.value": "inactive"
  },
  {
    "compound": "CCCCC/C=C\\C/C=C\\CCCCCCCC(=O)O",
    "label.value": "active"
  },
  {
    "compound": "COc1ccc(-c2coc3cc(O)ccc3c2=O)cc1",
    "label.value": "inactive"
  },
  {
    "compound": "CC(=O)[C@H]1CC[C@H]2[C@@H]3CCC4=CC(=O)CC[C@]4(C)[C@H]3CC[C@]12C",
    "label.value": "inactive"
  },
  {
    "compound": "C#C[C@]1(OC(C)=O)CC[C@H]2[C@@H]3CCC4=C[C@@H](OC(C)=O)CC[C@@H]4[C@H]3CC[C@@]21C",
    "label.value": "inactive"
  },
  {
    "compound": "CCCCOC(=O)CC",
    "label.value": "inactive"
  },
  {
    "compound": "[Cl][Pt-2]([Cl])([Cl])[Cl]",
    "label.value": "inactive"
  },
  {
    "compound": "CC(C)OC(=O)C(O)(CC(=O)O)CC(=O)O",
    "label.value": "inactive"
  },
  {
    "compound": "O=[N+]([O-])c1cccc(C(F)(F)F)c1",
    "label.value": "inactive"
  },
  {
    "compound": "O=C(O)c1cc(N=Nc2ccc([N+](=O)[O-])cc2)ccc1O",
    "label.value": "inactive"
  },
  {
    "compound": "NC(=S)NC(N)=S",
    "label.value": "inactive"
  },
  {
    "compound": "CCCC(=O)OCOC(=O)C1=C(C)NC(C)=C(C(=O)OC)C1c1cccc(Cl)c1Cl (stereo unspecified)",
    "label.value": "inactive"
  },
  {
    "compound": "CCCCCCC1CCCC(=O)O1 (stereo unspecified)",
    "label.value": "inactive"
  },
  {
    "compound": "Cc1c(C)c([N+](=O)[O-])c(C(C)(C)C)c([N+](=O)[O-])c1C",
    "label.value": "inactive"
  },
  {
    "compound": "Clc1ccnc(Cl)n1",
    "label.value": "inactive"
  }
]
